assayOverview: qHTS for inhibitors of Vif-A3G interactions: Cherry picks; further: nearly all actives have a fitted effect of over 80% in size
experimentalParameters: HeLa A3G-eYFP + Vif, 24 h; eYFP fluorescence increase; series mostly up to 36.9 µM
The whole screen tested about 2,100 compounds, of which about 650 (31%) were called active. About 16% were inconclusive and are not listed. The call rests on the fitted dose curve; in most records, active means well fitted inhibition curve with a large enough effect; inconclusive means small, poorly fitted or top-dose-only effect; inactive means flat fitted curve, though single readings scatter. The list shows a part of the results.
Pick from active, inactive when you respond.

Example results:
Cc1cc(C)c(N2C(=O)CC(Sc3ccccc3N)C2=O)c(C)c1 (stereo unspecified) | inactive
c1ccc(C2CNCc3c2ccc2ccccc32)cc1 (stereo unspecified) | inactive
COc1ccc(OC)c(NC(=O)c2sc3nc(Cc4ccccc4)cc(C(F)(F)F)c3c2N)c1 | active

Can you look up the reported call for `COc1cc(C(=O)Nc2nnc(Cc3ccccc3)s2)cc(OC)c1OC` for me?
inactive

Entry to check: `CC(C)(C)C(=O)/C(=C/c1ccc(Cl)cc1)n1cncn1`
inactive

* * *

assayOverview: qHTS for inhibitors of Vif-A3G interactions: Cherry picks; further: nearly all actives have a fitted effect of over 80% in size
experimentalParameters: HeLa A3G-eYFP + Vif, 24 h; eYFP fluorescence increase; series mostly up to 36.9 µM
About 650 (31%) of roughly 2,100 compounds were called active. Inconclusive results (about 16%) are left out. Calls come from the whole dose curve; as a rule, active = well fitted inhibition curve with a large enough effect; inconclusive = small, poorly fitted or top-dose-only effect; inactive = flat fitted curve, though single readings scatter. Some of the results follow.
Pick from active, inactive when you respond.

Cc1onc(-c2c(F)cccc2Cl)c1C(=O)O/N=C(\N)c1ccc([N+](=O)[O-])o1 | inactive

Give the logged outcome of this assay for the following molecule: `CCN(Cc1ccccc1)c1ccc(/C=C/c2nccc3ccccc23)cc1`
active

Try this molecule too: `CCN(CC)c1ccc(/C=C(/C#N)c2nc3ccccc3[nH]2)c(OC(C)C)c1`
active

Now consider `Cc1cccc(OCCOc2ccccc2C=C(C#N)C#N)c1` and answer again.
inactive

Same read-out for `CN(C)c1ccc(C=Cc2nccc3ccccc23)cc1` ?
active

# repeat for `O=C(/C=C/c1cccs1)NCc1ccc2c(c1)OCO2`
inactive

* * *

assayOverview: qHTS for inhibitors of Vif-A3G interactions: Cherry picks; further: nearly all actives have a fitted effect of over 80% in size; further: potency means the concentration at half of the fitted maximal effect
experimentalParameters: HeLa A3G-eYFP + Vif (tagged APOBEC3G with the HIV-1 protein that degrades it), 24 h; eYFP fluorescence increase; series mostly up to 36.9 µM
About 650 (31%) of roughly 2,100 compounds were called active. Roughly 16% stayed inconclusive and do not appear here. The list shows a part of the results.
recordedEndpoint: Potency

CC1(C(=O)Nc2ccc3c(c2)OCO3)Cc2c(-c3ccccc3)ccnc2O1 (configuration not stated) | inactive
CC(C)(C)OC(=O)NCc1ccc(NC(=O)c2nc[nH]c2C(=O)NCCCNC(=O)c2[nH]cnc2C(=O)Nc2ccc(CNC(=O)OC(C)(C)C)cc2)cc1 | inactive
COC(=O)c1sc2cc([N+](=O)[O-])cc(SCC(C)C)c2c1N | 16.4 µM (active)
CCOc1ccc(S(=O)(=O)N(CC(=O)N/N=C/c2ccc(-c3ccc([N+](=O)[O-])cc3)o2)c2ccccc2)cc1 | inactive
N#C/C(=C/c1ccc2c(c1)OCO2)C(=O)Nc1ccc(O)cc1 | inactive
COc1cc(C(=O)N/N=C/c2ccccn2)cc(OC)c1OC | inactive

Please look up its Potency: `COc1ccc(Cn2c(=O)cc(N)n(-c3ccccc3C)c2=O)cc1`
inactive

Proceed to `CC(C)(C)NC(=S)N/N=C\c1ccc(-c2ccc([N+](=O)[O-])cc2)o1`
20.6 µM (active)

Field entry: CC(CC(=O)Nc1ccc2c(c1)c(=O)n(C)n2Cc1ccc(F)cc1)c1ccccc1 (configuration not stated)
inactive

Can you handle `Cc1cc([N+](=O)[O-])ccc1-c1ccc(/C=N/NC(=O)c2ccc(Br)o2)o1` next?
16.4 µM (active)

Do the same for `COc1ccccc1/C=C/C=N/n1c(-c2ccc(C)cc2)n[nH]c1=S` please
inactive
